# System: EKVX
# ASSAY_REMARKS: Growth inhibition of human EKVX cells at 10 uM incubated for 48 hrs by sulforhodamine B assay
# Format: functional, cell-based
Calls of active or inactive are those of the source. No cut-off for these calls is given here.
Write down one outcome, taken from active, inactive

O=CN1N=C(c2ccc(Cl)cc2)CC1c1cccc(Nc2ccnc3cc(Cl)ccc23)c1 (stereo not given) ... active
COc1ccc(C(=O)/C=C/c2cccc(Nc3ccnc4cc(Cl)ccc34)c2)cc1 ... active
COc1cc(C2=NN(c3ccc(Cl)cc3)C(c3cccc(Nc4ccnc5cc(Cl)ccc45)c3)C2)cc(OC)c1OC (stereo not given) ... inactive
Clc1ccc(C2=NN(c3ccccc3)C(c3cccc(Nc4ccnc5cc(Cl)ccc45)c3)C2)cc1 (stereo not given) ... inactive
COc1cc(C(=O)/C=C/c2cccc(Nc3ccnc4cc(Cl)ccc34)c2)cc(OC)c1OC ... active

Now look at this entry.
**Q:** How was COc1ccc(C2=NN(c3ccc(Cl)cc3)C(c3cccc(Nc4ccnc5cc(Cl)ccc45)c3)C2)cc1 (stereo not given) classified in this test?
**A:** inactive
